The values you see were collected from patent US8372967B2.

Give % change in SGLT2 mRNA vs saline for every item shown.
- System: SGLT2 mRNA
- experiment: SGLT2 mRNA in kidney of Balb/c mice, twenty 1-10-1 MOE gapmers, PPS 534 and PPS 553 (Table 74)
- Assay type: in vivo, mouse
- assay.setup: i.p. 350 nmol/kg twice per week for two weeks, primer probe set 553, normalized to cyclophilin
Strand notation (5' to 3'): a small letter for the sugar, then the base; units joined by * are phosphorothioate-linked, units joined directly phosphodiester-linked; [ ] holds rarer units or linkages, { } end groups; capitals alone tell only the bases. e = 2'-O-(2-methoxyethyl) (MOE); [5mC] = 5-methylcytosine; d = 2'-deoxy (DNA)

(Q) Please give the measured % change in SGLT2 mRNA vs saline for this substance: 379698 (eG*d[5mC]*dA*dG*d[5mC]*d[5mC]*d[5mC]*dA*d[5mC]*d[5mC]*dT*e[5mC]) [compound 379698]
(A) −27.0 % Saline

(Q) Please give the measured % change in SGLT2 mRNA vs saline for this substance: 379686 (antisense eA*d[5mC]*d[5mC]*dA*d[5mC]*dA*dA*dG*d[5mC]*d[5mC]*dA*eA) [compound 379686]
(A) −75.1 % Saline

(Q) Please give the measured % change in SGLT2 mRNA vs saline for this substance: 379693 (antisense e[5mC]*dA*dT*dG*dG*dT*dG*dA*dT*dG*d[5mC]*e[5mC]) [compound 379693]
(A) −59.9 % Saline

(Q) Please give the measured % change in SGLT2 mRNA vs saline for this substance: 379691 (antisense eA*dG*dA*dT*d[5mC]*dT*dT*dG*dG*dT*dG*eA) [compound 379691]
(A) −48.6 % Saline

(Q) Please give the measured % change in SGLT2 mRNA vs saline for this substance: 379703 (eG*d[5mC]*d[5mC]*dG*dG*dA*dG*dA*d[5mC]*dT*dG*eA; antisense) [compound 379703]
(A) −45.9 % Saline

(Q) Please give the measured % change in SGLT2 mRNA vs saline for this substance: 379695 (antisense eG*dG*dA*d[5mC]*dA*d[5mC]*d[5mC]*dG*dT*d[5mC]*dA*eG) [compound 379695]
(A) −64.1 % Saline

(Q) Please give the measured % change in SGLT2 mRNA vs saline for this substance: 379696 (e[5mC]*dA*dG*d[5mC]*dT*dT*d[5mC]*dA*dG*dG*dT*eA; antisense) [compound 379696]
(A) −36.2 % Saline
